Assay: in vitro
Settings: human
endpoint.name: CC50 (µM)
Only the number, expressed in µM, is required.

Some solved cases for reference:
[
  {
    "compound": "CC1=NO[C@@]2(CC[C@H](C)N3C[C@H]2n2cc(C(=O)NCc4ccc(F)cc4F)c(=O)c(OC(=O)N(C)c4ncccc4CN(CC(=O)OC(C)(C)C)C(=O)OCOP(=O)(O)O)c2C3=O)C1 [Compound 5]",
    "CC50 [µM]": 10.3
  },
  {
    "compound": "CC1=NO[C@@]2(CC[C@H](C)N3C[C@H]2n2cc(C(=O)NCc4ccc(F)cc4F)c(=O)c(OCOC(=O)CC(C)(C)c4c(CC(=O)NCP(=O)(O)O)cc(C)cc4OP(=O)(O)O)c2C3=O)C1 [Compound 81]",
    "CC50 [µM]": 14.4
  },
  {
    "compound": "CC1=NO[C@@]2(CC[C@H](C)N3C[C@H]2n2cc(C(=O)NCc4ccc(F)cc4F)c(=O)c(OCOC(=O)CC(C)(C)c4c(CC(=O)O)cc(C)cc4OP(=O)(O)O)c2C3=O)C1 [Compound 20]",
    "CC50 [µM]": 12.5
  }
]

Value of measured CC50 for the entry CC1=NO[C@@]2(CC[C@H](C)N3C[C@H]2n2cc(C(=O)NCc4ccc(F)cc4F)c(=O)c(OC(=O)CC(C)(C)c4c(C)cc(C)cc4OP(=O)(O)O)c2C3=O)C1 [Compound 26] : 12.2

Record CC1=NO[C@@]2(CC[C@H](C)N3C[C@H]2n2cc(C(=O)NCc4ccc(F)cc4F)c(=O)c(OCOC(=O)OCc4ccc(OP(=O)(O)O)cc4)c2C3=O)C1 [Compound 19] . Reported CC50: 10.9

# CC50 of CC1=NO[C@@]2(CC[C@H](C)N3C[C@H]2n2cc(C(=O)NCc4ccc(F)cc4F)c(=O)c(OCOC(=O)[C@@H]4CC[C@@H]4CN(CC(=O)O)C(=O)OCOP(=O)(O)O)c2C3=O)C1 [Compound 80] = 10.1

Reported CC50 for CC1=NO[C@@]2(CC[C@H](C)N3C[C@H]2n2cc(C(=O)NCc4ccc(F)cc4F)c(=O)c(OCOC(=O)CC(C)(C)c4c(CC(=O)N5CCC[C@@H]5C(=O)O)cc(C)cc4OP(=O)(O)O)c2C3=O)C1 [Compound 57] was 15

CC1=NO[C@@]2(CC[C@H](C)N3C[C@H]2n2cc(C(=O)NCc4ccc(F)cc4F)c(=O)c(OC(=O)N(C)c4ncccc4CN(CCC(F)(F)F)C(=O)OCOP(=O)(O)O)c2C3=O)C1 [Compound 82] has a reported CC50 of 8.52

CC50 measured on CC1=NO[C@@]2(CC[C@H](C)N3C[C@H]2n2cc(C(=O)NCc4ccc(F)cc4F)c(=O)c(OCc4ccncc4OP(=O)(O)O)c2C3=O)C1 [Compound 70] = 10.2

The measured CC50 associated with COC1=NO[C@@]2(CC[C@H](C)N3C[C@H]2n2cc(C(=O)NCc4ccc(F)cc4F)c(=O)c(OC(=O)N(C)c4ncccc4CN(CC(=O)O)C(=O)OCOP(=O)(O)O)c2C3=O)C1 [Compound 59] reads 10.6
